Target Desc: Leucine-rich repeat serine/threonine-protein kinase 2 [G2019S] (Homo sapiens, UniProt Q5S007, G2019S)
Sequence (Q5S007 whole entry G2019S): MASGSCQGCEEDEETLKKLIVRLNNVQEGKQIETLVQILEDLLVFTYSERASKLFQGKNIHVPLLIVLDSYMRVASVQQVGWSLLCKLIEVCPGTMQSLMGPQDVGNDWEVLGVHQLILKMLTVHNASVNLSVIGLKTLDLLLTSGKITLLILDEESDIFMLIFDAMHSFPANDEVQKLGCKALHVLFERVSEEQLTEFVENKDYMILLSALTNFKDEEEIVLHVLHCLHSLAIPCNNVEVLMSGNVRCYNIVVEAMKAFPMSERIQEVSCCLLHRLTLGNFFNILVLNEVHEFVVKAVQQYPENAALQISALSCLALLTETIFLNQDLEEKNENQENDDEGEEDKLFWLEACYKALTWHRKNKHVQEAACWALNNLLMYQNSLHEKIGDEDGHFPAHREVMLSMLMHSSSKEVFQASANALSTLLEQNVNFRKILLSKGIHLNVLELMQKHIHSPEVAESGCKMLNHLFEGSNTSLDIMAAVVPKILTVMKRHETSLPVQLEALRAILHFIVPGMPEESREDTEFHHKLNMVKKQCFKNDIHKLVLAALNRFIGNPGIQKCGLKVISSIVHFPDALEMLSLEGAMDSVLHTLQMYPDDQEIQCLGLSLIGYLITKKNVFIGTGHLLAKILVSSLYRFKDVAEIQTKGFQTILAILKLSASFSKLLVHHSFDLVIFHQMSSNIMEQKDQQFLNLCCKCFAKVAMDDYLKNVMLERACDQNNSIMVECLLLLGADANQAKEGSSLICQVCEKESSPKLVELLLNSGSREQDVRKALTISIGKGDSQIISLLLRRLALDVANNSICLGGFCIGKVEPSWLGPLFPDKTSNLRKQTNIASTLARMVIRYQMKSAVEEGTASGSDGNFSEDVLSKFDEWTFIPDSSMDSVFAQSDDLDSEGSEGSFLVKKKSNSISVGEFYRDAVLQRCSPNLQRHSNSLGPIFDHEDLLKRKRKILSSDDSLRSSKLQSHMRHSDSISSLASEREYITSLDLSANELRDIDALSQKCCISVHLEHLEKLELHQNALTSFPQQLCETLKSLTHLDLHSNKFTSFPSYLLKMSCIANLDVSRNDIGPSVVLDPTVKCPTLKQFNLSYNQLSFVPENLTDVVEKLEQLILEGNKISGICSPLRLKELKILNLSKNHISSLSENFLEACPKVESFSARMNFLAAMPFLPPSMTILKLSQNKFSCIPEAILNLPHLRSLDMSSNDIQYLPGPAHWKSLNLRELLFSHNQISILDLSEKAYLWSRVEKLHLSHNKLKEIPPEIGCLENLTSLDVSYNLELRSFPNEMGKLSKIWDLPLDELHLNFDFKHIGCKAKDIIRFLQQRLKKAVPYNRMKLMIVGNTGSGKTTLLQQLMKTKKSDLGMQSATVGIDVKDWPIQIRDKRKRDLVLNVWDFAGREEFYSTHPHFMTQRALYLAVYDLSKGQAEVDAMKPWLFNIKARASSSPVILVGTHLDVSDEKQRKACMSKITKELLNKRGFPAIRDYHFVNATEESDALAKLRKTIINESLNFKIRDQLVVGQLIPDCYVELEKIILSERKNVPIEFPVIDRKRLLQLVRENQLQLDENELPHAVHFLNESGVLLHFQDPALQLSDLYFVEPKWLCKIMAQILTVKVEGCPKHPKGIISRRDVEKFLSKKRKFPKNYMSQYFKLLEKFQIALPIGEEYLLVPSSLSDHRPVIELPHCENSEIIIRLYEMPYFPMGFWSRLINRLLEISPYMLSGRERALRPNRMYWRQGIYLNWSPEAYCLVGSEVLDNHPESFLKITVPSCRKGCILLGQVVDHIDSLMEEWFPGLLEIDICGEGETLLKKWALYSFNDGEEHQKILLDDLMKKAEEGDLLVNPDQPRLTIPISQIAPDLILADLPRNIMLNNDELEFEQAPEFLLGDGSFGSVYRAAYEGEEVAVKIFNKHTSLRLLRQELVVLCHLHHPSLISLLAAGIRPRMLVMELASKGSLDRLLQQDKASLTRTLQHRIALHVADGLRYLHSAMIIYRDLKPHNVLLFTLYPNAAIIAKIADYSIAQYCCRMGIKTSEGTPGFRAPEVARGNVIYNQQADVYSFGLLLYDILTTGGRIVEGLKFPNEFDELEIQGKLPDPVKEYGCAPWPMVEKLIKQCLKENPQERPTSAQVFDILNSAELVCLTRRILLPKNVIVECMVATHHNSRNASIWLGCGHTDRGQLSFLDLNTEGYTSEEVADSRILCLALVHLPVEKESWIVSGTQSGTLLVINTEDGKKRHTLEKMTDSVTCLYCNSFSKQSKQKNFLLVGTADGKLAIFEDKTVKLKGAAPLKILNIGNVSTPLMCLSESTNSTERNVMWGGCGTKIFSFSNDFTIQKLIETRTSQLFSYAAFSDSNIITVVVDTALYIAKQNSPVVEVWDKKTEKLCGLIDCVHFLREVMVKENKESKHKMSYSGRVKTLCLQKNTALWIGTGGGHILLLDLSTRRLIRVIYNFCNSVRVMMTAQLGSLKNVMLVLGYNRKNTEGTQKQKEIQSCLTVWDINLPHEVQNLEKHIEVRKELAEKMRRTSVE
Protocol: LRRK2 Wild-Type and G2019S Kinase Activity Assay
Property: IC50 (nM)
Use nM as the unit, but write only the number.

Compound	Property	Observed Measurement
Cc1c([N+](=O)[O-])c(OCCCn2nc(Cl)c3cnc(Cl)nc32)nn1[C@H]1C[C@@H](C)O[C@@H](C)C1 [US11780851, Example 41]	IC50	6.4
Cc1c2c(nn1C1CC3CCC(C1)O3)OCCCn1nc(Cl)c3cnc(nc31)N2 (centres undefined) [US11780851, Example 44]	IC50	4.3
Cc1c2c(nn1[C@@H]1CCCOCC1)OCCCn1nc(Cl)c3cnc(nc31)N2 [US11780851, Example 59]	IC50	6.2

Consider the record given below.
QUERY: Find the measured IC50 of Cc1c2c(nn1C1(C(N)=O)CC1)OCCCn1nc(Cl)c3cnc(nc31)N2 [US11780851, Example 36] and report it.
RESULT: 7.2
